Measured values drawn from patent US5686486A for this set.

molecular target: HIV-1 protease (Human immunodeficiency virus type 1 group M subtype B, UniProt P04585); test: biochemical; conditions: read-out: HIV-1 Protease % Inhib, dose 10.000 uM
attribute-measured: inhibition at 10 µM (%)
Return type: number; implicit unit %.

Consider the reported inhibition at 10 µM for these compounds:
• CCC(c1ccccc1)c1c(O)c2c(oc1=O)CCCCCC2 (centres unmarked) [Example 108] = 95.5
• CCCC(c1cccc(NS(=O)(=O)c2ccc(C#N)cc2)c1)c1c(O)c2c(oc1=O)CCCCCC2 (centres unmarked) [Example 378] = 112
• O=c1oc2c(c(O)c1C(c1ccccc1)C1CC1)CCCCCC2C(O)C1CC1 (centres unmarked) [Example 176] = 109
• O=c1oc2c(c(O)c1C(c1cccc(NS(=O)(=O)CCc3ccccc3)c1)C1CC1)CCCCCC2 (centres unmarked) [Example 346] = 103

Query :: # lookup: inhibition at 10 µM of O=C(Cc1ccccc1)Nc1cccc(C(c2c(O)c3c(oc2=O)CCCCCC3)C2CC2)c1 (centres unmarked) [Example 207]
Result :: 83

Query :: Here is the next compound: COCCOCCOCCOc1ccc(S(=O)(=O)Nc2cccc(C(c3c(O)c4c(oc3=O)CCCCCC4)C3CC3)c2)cc1 (centres unmarked) [Example 415]
Result :: 125

Query :: Here is the next compound: CCC(c1cccc(NC(=O)CCNC(=O)OC(C)(C)C)c1)c1c(O)c2c(oc1=O)CCCCCC2 (centres unmarked) [Example 219]
Result :: 109

Query :: Here is the next compound: CCC(c1ccc(OC(C)=O)cc1)c1c(O)c2ccccc2oc1=O (centres unmarked) [Example 72]
Result :: 18.9

Query :: Here is the next compound: O=c1oc2c(c(O)c1[C@@H](c1cccc(NS(=O)(=O)c3cccc4cccnc34)c1)C1CC1)CCCCCC2 [Example 260]
Result :: 102

Query :: Here is the next compound: CCCC(c1cccc(NS(=O)(=O)c2cccnc2)c1)c1c(O)c2c(oc1=O)CCCCCC2 (centres unmarked) [Example 433]
Result :: 109

Query :: Here is the next compound: O=c1oc2ccccc2c(O)c1C(c1ccccc1)C1CC1 (centres unmarked) [Example 15]
Result :: 89.6

Query :: Here is the next compound: CCC(c1ccccc1)c1c(O)c2cc(F)ccc2oc1=O (centres unmarked) [Example 87]
Result :: 20.6

Query :: Here is the next compound: O=C(NCc1ccc(C(c2c(O)c3c(oc2=O)CCCCCC3)C2CC2)s1)OCc1ccccc1 (centres unmarked) [Example 389]
Result :: 96.4

Query :: Here is the next compound: O=c1oc2c(c(O)c1C(c1ccccc1)C1CC1)CCCCC2CC1CCCO1 (centres unmarked) [Example 189]
Result :: 98.1

Query :: Here is the next compound: COc1ccc(S(=O)(=O)Nc2cccc(C(c3c(O)c4c(oc3=O)CCCCCC4)C3CC3)c2)cc1OC (centres unmarked) [Example 335]
Result :: 96.5

Query :: Here is the next compound: COc1ccc2c(c1)C(c1c(O)c3ccccc3oc1=O)CCC2 (centres unmarked) [Example 77]
Result :: 57.8

Query :: Here is the next compound: CC(C)CCC1CCCCc2c1oc(=O)c(C(c1ccccc1)C1CC1)c2O (centres unmarked) [Example 184]
Result :: 96.5

---

Recorded pKi values for a group of compounds are listed next.
molecular target: HIV-1 protease (Human immunodeficiency virus type 1 group M subtype B, UniProt P04585); test: biochemical; conditions: read-out: HIV-1 FITC KI
API: returns pKi as number; meaning -log10 of concentration in mol/L.

Consider the reported pKi for these compounds:
• O=c1oc2c(c(O)c1C(C1CC1)C1CC1)CCCCCC2Cc1ccccc1 (stereo not shown) [Example 123] = 6.59
• CCCC(c1cccc(NS(=O)(=O)c2cccc3cccnc23)c1)c1c(O)c2c(oc1=O)CCCCCC2 (stereo not shown) [Example 432] = 8.78
• O=c1oc2c(c(O)c1[C@@H](c1cccc(NS(=O)(=O)/C=C/c3ccccc3)c1)C1CC1)CCCCCC2 [Example 261] = 8.51
• O=c1oc2c(c(O)c1C(c1cccc(NS(=O)(=O)c3ccc(NS(=O)(=O)c4ccccc4)cc3)c1)C1CC1)CCCCCC2 (stereo not shown) [Example 349] = 7.47
• O=c1oc2c(c(O)c1C(c1cccc(NS(=O)(=O)c3cccc(C(F)(F)F)c3)c1)C1CC1)CCCCCC2 (stereo not shown) [Example 280] = 8.52

Query :: # lookup: pKi of Nc1cc(NS(=O)(=O)c2ccccc2)cc(C(c2c(O)c3c(oc2=O)CCCCCC3)C2CC2)c1 (stereo not shown) [Example 486]
Result :: 7.26

Query :: Here is the next compound: CC(C)C(c1cccc(NS(=O)(=O)c2ccc(Cl)cc2)c1)c1c(O)c2c(oc1=O)CCCCCC2 (stereo not shown) [Example 373]
Result :: 7.74

---

biological target: HIV-1 protease (Human immunodeficiency virus type 1 group M subtype B, UniProt P04585); assay: biochemical; settings: read-out: HIV-1 Protease % Inhib, dose 1.100 uM
attribute-measured: inhibition at 1.1 µM (%)
Return type: number; implicit unit %.

Consider the reported inhibition at 1.1 µM for these compounds:
- O=C(CO)Nc1cccc(S(=O)(=O)Nc2cccc(C(c3c(O)c4c(oc3=O)CCCCCC4)C3CC3)c2)c1 (stereo not shown): 102
- Nc1cc(NS(=O)(=O)c2ccccc2)cc(C(c2c(O)c3c(oc2=O)CCCCCC3)C2CC2)c1 (stereo not shown): 74

Query :: # lookup: inhibition at 1.1 µM of O=c1oc2c(c(O)c1C(c1cccc(S(=O)(=O)Nc3ccccc3)c1)C1CC1)CCCCCC2 (stereo not shown)
Result :: 78.7

Query :: Here is the next compound: CC(C)CC(c1cccc(NS(=O)(=O)c2ccc(F)cc2)c1)c1c(O)c2c(oc1=O)CCCCCC2 (stereo not shown)
Result :: 101

---

biological target: HIV-1 protease (Human immunodeficiency virus type 1 group M subtype B); assay: biochemical; settings: read-out: HIV-1 Protease % Inhib, dose 10.000 uM
attribute-measured: inhibition at 10 µM

Consider the reported inhibition at 10 µM for these compounds:
* CC(C)C(c1cccc(N)c1)c1c(O)c2c(oc1=O)CCCCCC2 (centres unmarked) [Example 371] | 108%
* O=c1oc2c(c(O)c1C(c1ccccc1)c1ccccc1)CCCCCC2 [Example 481] | 98%
* CC(C)C(c1ccccc1)c1c(O)c2c(oc1=O)CCCCCC2 (centres unmarked) [Example 227] | 90.1%
* CCC(c1ccccc1)c1c(O)c2c(oc1=O)CCC2 (centres unmarked) [Example 111] | 94.3%
* O=c1oc2ccccc2c(O)c1CCc1ccccc1 [Example 1, 4-Hydroxy-3-phenethylcoumarin] | 15.3%

Now take the following compound into account.
Query :: # lookup: inhibition at 10 µM of CC(C)(C)OC(=O)NCCCC(=O)Nc1cccc(C(c2c(O)c3c(oc2=O)CCCCCC3)C2CC2)c1 (centres unmarked) [Example 201]
Result :: 100%

---

molecular target: HIV-1 protease (Human immunodeficiency virus type 1 group M subtype B, UniProt P04585); assay: biochemical; conditions: read-out: HIV-1 Protease % Inhib, dose 100.000 uM
Assign Satisfied whenever inhibition at 100 µM does not fall below 90%; assign Not satisfied whenever it does.

Worked set:
* CCC(c1cccc(NC(=O)CCNC(=O)OC(C)(C)C)c1)c1c(O)c2ccc(OC)cc2oc1=O (stereo not drawn) [Example 58] | Satisfied
* CCC(CCCc1ccccc1)c1c(O)c2ccccc2oc1=O (stereo not drawn) [Example 156] | Not satisfied
* CC(c1cccc(C(=O)NCc2ccccc2)c1)c1c(O)c2ccccc2oc1=O (stereo not drawn) [Example 28] | Not satisfied
* CC(c1cccc(C(=O)NCc2ccccn2)c1)c1c(O)c2ccccc2oc1=O (stereo not drawn) [Example 27] | Not satisfied
* CCCC(c1ccccc1)c1c(O)c2ccc(OC)cc2oc1=O (stereo not drawn) [Example 37] | Satisfied

Moving on to the next compound.
Query :: Is inhibition at 100 µM for CCC(c1ccc(OCC(O)CO)cc1)c1c(O)c2ccccc2oc1=O (stereo not drawn) [Example 100] at or above 90%?
Result :: Not satisfied

---

biological target: UniProt:P04585; assay: biochemical; details: read-out: HIV-1 Protease % Inhib, dose 0.370 uM
Assign True whenever inhibition at 0.37 µM does not fall below 80%; assign False whenever it does.

- CC(C)(C)OC(=O)NCC(=O)Nc1cccc(C(c2c(O)c3c(oc2=O)CCCCCC3)C2CC2)c1 (single isomer, unassigned) [Example 238]: False

Query :: Is inhibition at 0.37 µM for COC(=O)c1cccc(S(=O)(=O)Nc2cccc(C(c3c(O)c4c(oc3=O)CCCCCC4)C3CC3)c2)c1 (stereo not shown) at or above 80%?
Result :: True

Query :: Here is the next compound: CC(C)CC(c1cccc(NS(=O)(=O)c2cccnc2)c1)c1c(O)c2c(oc1=O)CCCCCC2 (stereo not shown)
Result :: True
